tested on: Puccinia triticina; assay: Wheat brown rust (PUCCRT) disease control on wheat seedlings; assay type: in vivo; parameters: key: A: > 80; B: ≤ 80; C: Not Tested; D: No Activity Observed in the Reported Assay; conditions: low volume application, 125.1 g/H, 1 Day Protectant
assay endpoint: PUCCRT 1DP, LV activity at 125.1 g/H (% Control rating)

COc1ccnc(C(=O)NC(C)C(=O)OC(C)COC(C)(C)C)c1OCOC(C)=O (stereo not shown)
D
COc1ccnc(C(=O)NC(C)C(=O)OC(C)COC(=O)C(C)C)c1OC(C)=O (stereo not shown)
D
CCC(CC)[C@@H](Oc1ccccc1Cl)[C@H](C)OC(=O)[C@H](C)NC(=O)c1nccc(OC)c1OC(C)=O
A (> 80)
CCC(CC)[C@@H](Oc1cccc(F)c1)[C@H](C)OC(=O)[C@H](C)NC(=O)c1nccc(OC)c1OCOC(C)=O
A (> 80)

----------
tested on: Zymoseptoria tritici; assay: Leaf blotch of wheat (SEPTTR) disease control on wheat seedlings; type: in vivo; details: HV activity at 100 ppm; 1 Day Protectant; wheat
assay endpoint: SEPTTR disease control, 1DP

CCCOC(CC)C(Oc1ccccc1)C(C)OC(=O)C(NC(=O)c1nccc(OC)c1O)C(C)C (stereo not drawn)
B (≤ 80)
CCCOC(CC)C(Oc1ccccc1)C(C)OC(=O)C(CC)NC(=O)c1nccc(OC)c1O (stereo not drawn)
B (≤ 80)
CCCOC(CC)C(Oc1ccccc1)C(C)OC(=O)C(CC(C)C)NC(=O)c1nccc(OC)c1O (stereo not drawn)
D
CCCOC(CC)C(Oc1ccccc1)C(C)OC(=O)C(C)NC(=O)c1nccc(OC)c1O (stereo not drawn) [Cmpd 295]
D

Then there is this molecule:
Value lookup for SEPTTR disease control, 1DP; key = CCCOC(CC)C(Oc1ccccc1)C(C)OC(=O)C(C)NC(=O)c1nccc(OC)c1O (stereo not drawn) [Cmpd 289]
B (≤ 80)

----------
system: Puccinia triticina; assay: Wheat brown rust (PUCCRT) disease control on wheat seedlings; format: in vivo; conditions: high volume application, 100 ppm, 1 day protectant
assay endpoint: PUCCRT 1DP disease control rating, HV activity at 100 ppm

Solved entries:
CCC[C@@H](OCC1CC1)[C@H](C)OC(=O)[C@H](C)NC(=O)c1nccc(OC)c1O
A (> 80)
COc1ccnc(C(=O)NC(C)C(=O)OC(C)C(Oc2ccc(F)cc2)c2ccccc2)c1O (stereo not shown)
A (> 80)
COc1ccnc(C(=O)N[C@@H](C)C(=O)O[C@@H](C)[C@H](Oc2ccc(F)cc2)C2CCCC2)c1O
A (> 80)
COc1ccnc(C(=O)NC(C)C(=O)OC(C)C(OCC2CC2)c2ccccc2)c1O (stereo not shown)
A (> 80)
COc1ccnc(C(=O)N[C@@H](C)C(=O)O[C@@H](C)[C@H](Oc2ccc(C)cc2)C2CC2)c1O
A (> 80)

Value lookup for PUCCRT 1DP disease control rating, HV activity at 100 ppm; key = `COc1ccnc(C(=O)N[C@@H](C)C(=O)O[C@@H](C)[C@H](Oc2ccc(C)cc2Cl)C(C)(C)C)c1O`
A (> 80)

Value lookup for PUCCRT 1DP disease control rating, HV activity at 100 ppm; key = COc1ccnc(C(=O)NC(C)C(=O)OC(C)C(OC)c2ccccc2)c1O (stereo not shown)
B (≤ 80)

Value lookup for PUCCRT 1DP disease control rating, HV activity at 100 ppm; key = CC(NC(=O)c1nccc(Br)c1O)C(=O)OC(C)C(Oc1ccccc1)C(C)C (stereo not shown)
A (> 80)

Value lookup for PUCCRT 1DP disease control rating, HV activity at 100 ppm; key = `COc1cccc(O[C@H](C2CCCC2)[C@H](C)OC(=O)[C@H](C)NC(=O)c2nccc(OC)c2O)c1`
A (> 80)

Value lookup for PUCCRT 1DP disease control rating, HV activity at 100 ppm; key = `COc1ccnc(C(=O)N[C@@H](C)C(=O)O[C@@H](C)[C@H](OCC2CC2)C2CCCCC2)c1O`
A (> 80)

Value lookup for PUCCRT 1DP disease control rating, HV activity at 100 ppm; key = COc1ccnc(C(=O)NC(C)C(=O)OC(C)C(Oc2ccc(Cl)cc2Cl)c2ccccc2)c1O (stereo not shown)
A (> 80)

Value lookup for PUCCRT 1DP disease control rating, HV activity at 100 ppm; key = `CCC[C@@H](Oc1ccc(C)cc1Cl)[C@H](C)OC(=O)[C@H](C)NC(=O)c1nccc(OC)c1O`
A (> 80)

Value lookup for PUCCRT 1DP disease control rating, HV activity at 100 ppm; key = COc1ccnc(C(=O)NC(C)C(=O)OC(C)C(Oc2ccc(F)cc2)c2ccc(F)cc2)c1O (mixture of isomers)
A (> 80)

Value lookup for PUCCRT 1DP disease control rating, HV activity at 100 ppm; key = `C=CC[C@@H](Oc1cc(F)cc(Cl)c1)[C@H](C)OC(=O)[C@H](C)NC(=O)c1nccc(OC)c1O`
B (≤ 80)

Value lookup for PUCCRT 1DP disease control rating, HV activity at 100 ppm; key = COc1ccnc(C(=O)NC(C(=O)OC(C)C(Oc2ccccc2)C(C)C)C(F)(F)F)c1O (mixture of isomers)
A (> 80)

Value lookup for PUCCRT 1DP disease control rating, HV activity at 100 ppm; key = COc1ccnc(C(=O)NC(C)C(=O)OC(C)C(OC)C23CC4CC(CC(C4)C2)C3)c1O (stereo not shown)
B (≤ 80)

----------
tested on: Puccinia triticina; assay: Wheat brown rust (PUCCRT) disease control on wheat seedlings; type: in vivo; conditions: low volume application, 125.1 g/H, 1 Day Protectant
assay endpoint: PUCCRT 1DP, LV activity at 125.1 g/H (% Control rating)

Solved entries:
CC[C@H](CCC(C)C)[C@@H](OCC1CC1)[C@H](C)OC(=O)[C@H](C)NC(=O)c1nccc(OC)c1OCOC(C)=O [Cmpd 506]
A (> 80)
COc1ccnc(C(=O)N[C@@H](C)C(=O)O[C@@H](C)[C@H](Oc2cccc(Cl)c2)C(C)C)c1OC(C)=O [Cmpd 566]
A (> 80)
COc1ccnc(C(=O)N[C@@H](C)C(=O)O[C@@H](C)[C@H](Oc2ccc(-c3ccccc3)cc2)C(C)C)c1OCOC(C)=O [Cmpd 612]
A (> 80)
COc1ccnc(C(=O)N[C@@H](C)C(=O)O[C@@H](C)[C@H](Oc2cccc(Cl)c2)c2ccccc2)c1OC(C)=O [Cmpd 638]
A (> 80)
CCC(CC)[C@@H](Oc1ccccc1Cl)[C@H](C)OC(=O)[C@H](C)NC(=O)c1nccc(OC)c1OCOC(C)=O [Cmpd 593]
A (> 80)

Then there is this compound:
Value lookup for PUCCRT 1DP, LV activity at 125.1 g/H (% Control rating); key = COc1ccnc(C(=O)N[C@@H](C)C(=O)O[C@@H](C)[C@H](Oc2ccccc2Cl)c2ccccc2)c1OCOC(C)=O [Cmpd 639]
A (> 80)

----------
test system: Puccinia triticina; test: Wheat brown rust (PUCCRT) disease control on wheat seedlings; format: in vivo; conditions: low volume application, 125.1 g/H, 3 Day Curative, wheat brown rust
assay endpoint: LV activity at 125.1 g/H PUCCRT 3DC (disease control rating)

Solved entries:
C=CC[C@@H](Oc1ccc(F)cc1F)[C@H](C)OC(=O)[C@H](C)NC(=O)c1nccc(OC)c1OC(C)=O
B (≤ 80)
CCOc1ccnc(C(=O)N[C@@H](C)C(=O)O[C@@H](C)[C@@H](CC(C)C)Oc2cccc(Cl)c2)c1OC(C)=O
B (≤ 80)
COc1ccnc(C(=O)N[C@@H](C)C(=O)O[C@@H](C)[C@@H](CC(C)C)OCC2CC2)c1OC(C)=O
A (> 80)
COc1ccnc(C(=O)N[C@@H](C)C(=O)O[C@@H](C)[C@H](OCC2CC2)C(C)(C)C)c1OC(C)=O
A (> 80)
COc1ccnc(C(=O)N[C@@H](C)C(=O)O[C@@H](C)[C@@H](CC(C)C)Oc2cc(F)ccc2F)c1OC(C)=O
A (> 80)
C=CC[C@@H](OCC(=C)C)[C@H](C)OC(=O)[C@H](C)NC(=O)c1nccc(OC)c1OC(C)=O
B (≤ 80)
C=CC[C@@H](Oc1ccc(F)cc1F)[C@H](C)OC(=O)[C@H](C)NC(=O)c1nccc(OC)c1OCOC(C)=O
B (≤ 80)
C=CC[C@@H](Oc1cccc(Cl)c1)[C@H](C)OC(=O)[C@H](C)NC(=O)c1nccc(OC)c1OCOC(C)=O
A (> 80)

Value lookup for LV activity at 125.1 g/H PUCCRT 3DC (disease control rating); key = `CCC[C@@H](Oc1ccc(C)cc1Cl)[C@H](C)OC(=O)[C@H](C)NC(=O)c1nccc(OC)c1OC(C)=O`
B (≤ 80)

Value lookup for LV activity at 125.1 g/H PUCCRT 3DC (disease control rating); key = CCCC(OC(=O)C(C)NC(=O)c1nccc(OC)c1OCOC(C)=O)C(Oc1ccccc1)C(C)C (centres unmarked) [Cmpd 1096]
D

Value lookup for LV activity at 125.1 g/H PUCCRT 3DC (disease control rating); key = `CC(=O)OCOc1c(Br)ccnc1C(=O)N[C@@H](C)C(=O)O[C@@H](C)[C@H](Oc1ccccc1)C(C)C`
D

Value lookup for LV activity at 125.1 g/H PUCCRT 3DC (disease control rating); key = `COc1cc(O[C@H](C2CC2)[C@H](C)OC(=O)[C@H](C)NC(=O)c2nccc(OC)c2OC(C)=O)ccc1Cl`
A (> 80)

Value lookup for LV activity at 125.1 g/H PUCCRT 3DC (disease control rating); key = `COc1ccnc(C(=O)N[C@@H](C)C(=O)O[C@@H](C)[C@H](Oc2ccc(C)cc2Cl)C(C)(C)C)c1OC(C)=O`
B (≤ 80)

Value lookup for LV activity at 125.1 g/H PUCCRT 3DC (disease control rating); key = `C=CC[C@@H](Oc1cc(F)cc(Cl)c1)[C@H](C)OC(=O)[C@H](C)NC(=O)c1nccc(OC)c1OCOC(C)=O`
A (> 80)
